# measurement_target: T1, human LILRB2 expressed on cells (293T-LILRB2, CHO-K1-LILRB2) (human, UniProt Q8N423 22-597)
# T1 construct: whole, on cells; the cell line is named under assay; also called HEK293T-LILRB2
# T1 sequence (Q8N423 22-597): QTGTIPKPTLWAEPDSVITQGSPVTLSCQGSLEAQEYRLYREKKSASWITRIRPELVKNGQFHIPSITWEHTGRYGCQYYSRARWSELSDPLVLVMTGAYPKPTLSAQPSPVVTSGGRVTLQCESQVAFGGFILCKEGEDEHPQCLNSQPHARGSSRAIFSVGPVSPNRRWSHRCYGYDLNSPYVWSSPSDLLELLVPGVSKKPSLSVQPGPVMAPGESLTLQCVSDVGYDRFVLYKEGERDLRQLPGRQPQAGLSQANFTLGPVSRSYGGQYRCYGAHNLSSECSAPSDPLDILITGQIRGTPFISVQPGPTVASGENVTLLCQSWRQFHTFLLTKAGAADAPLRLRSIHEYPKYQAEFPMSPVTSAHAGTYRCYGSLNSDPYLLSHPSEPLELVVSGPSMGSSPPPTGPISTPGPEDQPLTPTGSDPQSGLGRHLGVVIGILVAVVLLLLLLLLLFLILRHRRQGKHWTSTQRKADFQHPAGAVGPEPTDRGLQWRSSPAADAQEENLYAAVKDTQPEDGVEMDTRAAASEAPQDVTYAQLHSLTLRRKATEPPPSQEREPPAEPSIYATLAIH
# experiment_description: flow cytometry, blockade of His-tagged HLA-G tetramer binding to 293T-LILRB2 cells; fit table under the graph
Here, each record is paired with measured pIC50 data.
# log scale: pIC50 equals minus log10 of the concentration in mol/L

Looking for the measured pIC50 of Antibody 2E1_FC11 (antibody, V domains shown, also called A16) VH: EVQLVESGGGLVQPGGSLRLSCAVSGYSITSGYYWNWIRQAPGKGLEWVAYISYDGNINYNPSLKNRFTISRDTSKNTFYLQMNSLRAEDTAVYYCAREESTMITTAWFAYWGQGTLVTVSS VL: DIQMTQSPSSLSASVGDRVTITCRASENIYSNLAWYQQKPGKAPKLLIYGATNLASGVPSRFSGSGSGTDYTLTISSLQPEDFATYYCQHFWDYPYTFGQGTKVEIK , can you help? 9.44

Others:
Form field: reported pIC50 of Antibody 2E1_FD3 (antibody, V domains shown) VH: EVQLVESGGGLVQPGGSLRLSCAVSGYSITSGYYWNWIRQAPGKGLEWVAYISYDGNANYNPSLKNRFTISRDTSKNTFYLQMNSLRAEDTAVYYCAREESTMITTAWFAYWGQGTLVTVSS VL: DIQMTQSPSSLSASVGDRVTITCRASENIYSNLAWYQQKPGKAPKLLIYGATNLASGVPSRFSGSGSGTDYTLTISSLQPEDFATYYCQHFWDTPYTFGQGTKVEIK 9.63

// lookup pIC50 for Antibody 2E1_FC3 (antibody, V domains shown) VH: EVQLVESGGGLVQPGGSLRLSCAVSGYSITSGYYWNWIRQAPGKGLEWVAYISYDGNTNYNPSLKNRFTISRDTSKNTFYLQMNSLRAEDTAVYYCAREESTMITTAWFAYWGQGTLVTVSS VL: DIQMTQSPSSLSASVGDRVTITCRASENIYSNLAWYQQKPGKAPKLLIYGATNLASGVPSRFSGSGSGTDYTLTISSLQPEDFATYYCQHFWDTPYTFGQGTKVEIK 9.91
